Target: KCC2 (Homo sapiens)
Assay: inhibitory activity measured in vitro on KCC2
Format: biochemical
Details: IC50, in vitro on KCC2

COMPOUND	SYSTEM	UNITS	IC50
CC(=O)N1CCCC1(CC1CCCCC1)C(=O)OCc1ccccc1 (stereo not shown)	KCC2 (Homo sapiens)	µM	4

###

Target: KCC2 (Homo sapiens, UniProt Q9H2X9)
Sequence (Q9H2X9 whole entry, species assumed): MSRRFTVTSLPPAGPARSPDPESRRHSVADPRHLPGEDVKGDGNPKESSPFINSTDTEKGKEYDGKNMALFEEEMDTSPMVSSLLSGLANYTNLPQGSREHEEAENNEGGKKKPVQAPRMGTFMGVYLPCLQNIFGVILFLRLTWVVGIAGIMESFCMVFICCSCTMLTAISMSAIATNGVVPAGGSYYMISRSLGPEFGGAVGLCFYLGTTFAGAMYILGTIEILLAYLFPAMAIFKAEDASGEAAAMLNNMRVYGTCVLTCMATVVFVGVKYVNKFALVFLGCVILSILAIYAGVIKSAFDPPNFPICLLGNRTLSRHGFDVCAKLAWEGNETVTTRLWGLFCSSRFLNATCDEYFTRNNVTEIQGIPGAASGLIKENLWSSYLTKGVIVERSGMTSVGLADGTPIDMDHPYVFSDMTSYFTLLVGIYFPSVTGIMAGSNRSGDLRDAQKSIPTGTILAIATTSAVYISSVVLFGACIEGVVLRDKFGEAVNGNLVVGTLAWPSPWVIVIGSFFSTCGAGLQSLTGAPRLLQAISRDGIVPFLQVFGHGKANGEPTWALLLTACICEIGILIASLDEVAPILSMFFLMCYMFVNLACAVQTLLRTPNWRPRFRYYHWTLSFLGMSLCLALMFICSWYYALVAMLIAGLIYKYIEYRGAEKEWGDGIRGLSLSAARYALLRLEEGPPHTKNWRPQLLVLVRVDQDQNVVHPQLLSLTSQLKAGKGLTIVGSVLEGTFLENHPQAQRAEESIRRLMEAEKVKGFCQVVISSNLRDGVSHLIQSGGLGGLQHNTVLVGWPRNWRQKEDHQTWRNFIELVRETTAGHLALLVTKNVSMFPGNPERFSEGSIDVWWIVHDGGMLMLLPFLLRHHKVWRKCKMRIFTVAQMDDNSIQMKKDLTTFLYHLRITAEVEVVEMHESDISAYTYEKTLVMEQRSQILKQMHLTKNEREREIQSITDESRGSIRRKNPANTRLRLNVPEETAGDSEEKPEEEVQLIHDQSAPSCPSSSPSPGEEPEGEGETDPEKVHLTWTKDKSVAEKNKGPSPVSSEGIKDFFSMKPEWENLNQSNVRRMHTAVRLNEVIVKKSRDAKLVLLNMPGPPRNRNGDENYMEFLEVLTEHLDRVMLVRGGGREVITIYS
Assay: inhibitory activity measured in vitro on KCC2
Format: biochemical
Conditions: in vitro on KCC2; read-out: IC50
TEST READOUT: log10 IC50 (log10 of the value in nM)

COMPOUND	log10 IC50
CC(=O)N1CCCC1(Cc1ccccc1)C1=N[C@H](c2ccccc2)CO1 (some centres unmarked)	3.11
CC(=O)N1CCCC1(Cc1ccc(F)cc1C(F)(F)F)C(=O)OCc1ccccc1 (centres unmarked)	3.60
O=C(C1CC1)N1CCCC1(Cc1ccccc1)C(=O)OCc1ccccc1 (centres unmarked)	2.51
CC(=O)N1c2ccccc2CC1(Cc1ccccc1)C(=O)OCc1ccccc1 (centres unmarked)	2.30
CC(=O)N1CCCC1(Cc1ccccc1)c1nc(-c2ccccc2)co1 (centres unmarked)	4.10

###

Molecular target: KCC2 (Homo sapiens, UniProt Q9H2X9)
Test: inhibitory activity measured in vitro on KCC2
Format: biochemical
Settings: in vitro on KCC2; read-out: IC50
IC50 by entry:

COMPOUND	LIMIT SIGN	IC50 [µM]
CC(=O)N1CCCC1(Cc1ccccc1)C(=O)OCc1ccccc1 (stereo not shown) [Compound 21]	=	0.79
O=C1CCCC2CCC(Cc3ccccc3)(C(=O)OCc3ccccc3)N12 (stereo not shown) [Compound 69]	=	1
CC(=O)N1CCCC1(Cc1cccc(C#N)c1)C(=O)OCc1ccccc1 (stereo not shown) [Compound 34]	=	0.32
CC(=O)N1CCCC1(Cc1ccc(C(F)(F)F)cc1)C(=O)OCc1ccccc1 (stereo not shown) [Compound 29]	=	0.63
CC(=O)N1CCCC1(Cc1ccccc1)C(=O)OCc1ccc(C(F)(F)F)cc1 (stereo not shown) [Compound 53]	=	5
CC(=O)N1CCCC1(Cc1ccccc1)C(=O)OCc1ccc(S(C)(=O)=O)cc1 (stereo not shown) [Compound 54]	>	100
CC(=O)N1CCCC1(Cc1ccc(F)cc1)C(=O)OCc1ccccc1 (stereo not shown) [Compound 30]	=	0.2
CC(=O)N1CCCC1(Cc1ccc(F)cc1)C(=O)CCc1ccc(F)cc1 (stereo not shown) [Compound 64]	=	0.2
COc1ccc(CC2(C(=O)OCc3ccccc3)CCCN2C(C)=O)cc1C(F)(F)F (stereo not shown) [Compound 39]	=	0.05
CC(=O)N1CCCC1(Cc1ccccc1)C(=O)OCc1ccncc1 (stereo not shown) [Compound 48]	>	100
CS(=O)(=O)N1CCCC1(Cc1ccccc1)C(=O)OCc1ccccc1 (stereo not shown) [Compound 57]	=	1.6
COC(=O)N1CCCC1(Cc1ccccc1)C(=O)OCc1ccccc1 (stereo not shown) [Compound 58]	=	0.4
COc1ccc(CC2(C(=O)OCc3ccccc3)CCCN2C(C)=O)cc1 (stereo not shown) [Compound 28]	=	0.4
O=C(c1ccccc1)N1CCCC1(Cc1ccccc1)C(=O)OCc1ccccc1 (stereo not shown) [Compound 62]	=	4
CC(=O)N1CCCC1(Cc1ccc(C#N)cc1)C(=O)OCc1ccccc1 (stereo not shown) [Compound 33]	=	0.16
CC(=O)N1CCCC1(Cc1ccccc1)C(=O)O (stereo not shown) [Compound 43]	>	100
O=C(OCc1ccccc1)C1(Cc2ccccc2)CCCN1 (stereo not shown) [Compound 55]	>	100
CC(=O)N1CCCC1(Cc1ccccc1)C(=O)NCc1ccccc1 (stereo not shown) [Compound 41]	=	100
CCC1(C(=O)OCc2ccccc2)CCCN1C(C)=O (stereo not shown) [Compound 23]	=	2.3
CC(=O)N1CCCC1(Cc1ccccc1)C(=O)OC(C)c1ccccc1 (stereo not shown) [Compound 45]	=	4
CC(=O)N1CCCC1(Cc1ccccc1)C(=O)OCCc1ccccc1 (stereo not shown) [Compound 46]	=	10
CC(=O)N1CCCC1(Cc1ccccc1C#N)C(=O)OCc1ccccc1 (stereo not shown) [Compound 35]	=	5
